- Tested on: HBV
- METHOD_SUMMARY: Anti-HBV activity, HepG2.2.15 stable transfected cell line, HBV DNA from secreted virions by realtime PCR
- Format: cell-based
- STATED_CONDITIONS: Hepatitis B virus, 144 h; HepG2.2.15 cells, 6 days of treatment, HBV DNA from secreted virions; read-out: HepG 2.2.15 EC50
Mark Yes only for EC50 values smaller than 0.05 µM; exact matches and larger values are No.

Enquiry: Would you kindly verify if EC50 of Cc1cc(NC(=O)c2cc(C(=O)C(=O)N[C@H](C)C(F)(F)F)cn2C)ccc1F [Compound 5] is strictly less than 0.05 µM?
Return: No

Enquiry: Would you kindly verify if EC50 of Cn1cc(C(=O)C(=O)NC(C)(C)C)c(Cl)c1C(=O)Nc1ccc(F)c(C#N)c1 [Compound 23] is strictly less than 0.05 µM?
Return: Yes

Enquiry: Would you kindly verify if EC50 of Cc1c(C(=O)C(=O)NC(C)(C)C)c(C)n(C)c1C(=O)Nc1ccc(F)c(F)c1 [Compound 20] is strictly less than 0.05 µM?
Return: Yes

Enquiry: Would you kindly verify if EC50 of Cc1cc(NC(=O)c2cc(C(=O)C(=O)NC(C)(C)C(N)=O)cn2C)ccc1F [Compound 8] is strictly less than 0.05 µM?
Return: No

Enquiry: Would you kindly verify if EC50 of Cn1cc(C(=O)C(=O)NC2(C)COC2)cc1C(=O)Nc1cccc(C(F)(F)F)c1 [Compound 13] is strictly less than 0.05 µM?
Return: Yes

Enquiry: Would you kindly verify if EC50 of Cc1c(C(=O)C(=O)NC(C)(C)C)c(C)n(C)c1C(=O)Nc1ccc(F)c(C#N)c1 [Compound 19] is strictly less than 0.05 µM?
Return: Yes

Enquiry: Would you kindly verify if EC50 of Cc1c(C(=O)C(=O)NC(C)(C)C)cn(C)c1C(=O)Nc1ccc(F)c(C#N)c1 [Compound 22] is strictly less than 0.05 µM?
Return: Yes

====

- Tested on: HBV
- METHOD_SUMMARY: Anti-HBV activity, HepG2.117 inducible HBV producing cell line (Tet-off), intracellular HBV DNA by realtime PCR
- Assay type: cell-based
- STATED_CONDITIONS: Hepatitis B virus, 72 h; HepG2.117 cells, 3 days of treatment, intracellular HBV DNA; read-out: HepG2 117 EC50
Mark yes only for EC50 values smaller than 6 nM; exact matches and larger values are no.

Enquiry: Would you kindly verify if EC50 of Cc1c(C(=O)C(=O)NC(C)(C)C)cn(C)c1C(=O)Nc1ccc(F)c(C#N)c1 [Compound 22] is strictly less than 6 nM?
Return: no

Enquiry: Would you kindly verify if EC50 of Cc1c(C(=O)C(=O)NC(C)(CO)C2CC2)cc(C(=O)Nc2ccc(F)c(C#N)c2)n1C (centres unmarked) [Compound 77] is strictly less than 6 nM?
Return: no

Enquiry: Would you kindly verify if EC50 of Cc1c(C(=O)C(=O)NC2(C(F)(F)F)CCC2)c(Cl)c(C(=O)Nc2ccc(F)c(C#N)c2)n1C [Compound 43] is strictly less than 6 nM?
Return: yes

Enquiry: Would you kindly verify if EC50 of Cc1c(C(=O)C(=O)N[C@H]2[C@H](C)CC[C@H]2O)cc(C(=O)Nc2ccc(F)c(C#N)c2)n1C [Compound 66] is strictly less than 6 nM?
Return: no

Enquiry: Would you kindly verify if EC50 of Cc1c(C(=O)C(=O)NC2(C)COC2)c(Cl)c(C(=O)Nc2ccc(F)c(C#N)c2)n1C [Compound 44] is strictly less than 6 nM?
Return: yes

Enquiry: Would you kindly verify if EC50 of Cc1c(C(=O)C(=O)NC(C)(C)C)c(C)n(C)c1C(=O)Nc1ccc(F)c(F)c1 [Compound 20] is strictly less than 6 nM?
Return: yes

Enquiry: Would you kindly verify if EC50 of C[C@@H](NC(=O)C(=O)c1cn(C)c(C(=O)Nc2ccc(F)c(C#N)c2)c1Cl)C(F)(F)F [Compound 24] is strictly less than 6 nM?
Return: no

====

- System: HBV
- METHOD_SUMMARY: Anti-HBV activity, HepG2.117 inducible HBV producing cell line (Tet-off), intracellular HBV DNA by realtime PCR
- Type: cell-based
- STATED_CONDITIONS: Hepatitis B virus, 72 h; HepG2.117 cells, 3 days of treatment, intracellular HBV DNA; read-out: HepG2 117 EC50
ENDPOINT: pEC50
# log scale: pEC50 equals minus log10 of the concentration in mol/L

Enquiry: What value of pEC50 has been recorded for this entry: Cc1cc(NC(=O)c2cc(C(=O)C(=O)NC(C)(C)C)cn2C)ccc1F [Compound 3]
Return: 7.40

Enquiry: What value of pEC50 has been recorded for this entry: Cn1cc(C(=O)C(=O)NC(C)(C)C)c(Cl)c1C(=O)Nc1ccc(F)c(C#N)c1 [Compound 23]
Return: 8.10

Enquiry: What value of pEC50 has been recorded for this entry: Cc1c(C(=O)C(=O)NC2(C(F)(F)F)CCOC2)c(Cl)c(C(=O)Nc2ccc(F)c(C#N)c2)n1C (racemic) [Compound 41]
Return: 8.52

Enquiry: What value of pEC50 has been recorded for this entry: Cc1c(C(=O)C(=O)NC(C)C)c(Cl)c(C(=O)Nc2ccc(F)c(C#N)c2)n1C [Compound 45]
Return: 8.22

Enquiry: What value of pEC50 has been recorded for this entry: Cc1c(C(=O)C(=O)NC(C)(C)C)c(C)n(C)c1C(=O)Nc1ccc(F)c(C#N)c1 [Compound 19]
Return: 8.70

Enquiry: What value of pEC50 has been recorded for this entry: Cc1cc(NC(=O)c2cc(C(=O)C(=O)N[C@H](C)CC#N)cn2C)ccc1F [Compound 9]
Return: 6.70

Enquiry: What value of pEC50 has been recorded for this entry: Cc1c(C(=O)C(=O)NC(C)(C)C)cc(C(=O)Nc2ccc(F)c(C#N)c2)n1C [Compound 59]
Return: 8.40

Enquiry: What value of pEC50 has been recorded for this entry: C[C@@H](NC(=O)C(=O)c1c(Cl)c(C(=O)Nc2ccc(F)c(C#N)c2)n(C)c1C1CC1)C(F)(F)F [Compound 31]
Return: 7.72

Enquiry: What value of pEC50 has been recorded for this entry: Cn1cc(C(=O)C(=O)NC(C)(C)C)c(F)c1C(=O)Nc1ccc(F)c(C#N)c1 [Compound 34]
Return: 8.05

Enquiry: What value of pEC50 has been recorded for this entry: Cc1c(C(=O)C(=O)N[C@H]2CCC[C@@H]2O)cc(C(=O)Nc2ccc(F)c(C#N)c2)n1C [Compound 65]
Return: 6.80

Enquiry: What value of pEC50 has been recorded for this entry: C[C@@H](NC(=O)C(=O)c1c(Br)c(C(=O)Nc2ccc(F)c(C#N)c2)n(C)c1Br)C(F)(F)F [Compound 27]
Return: 8.30

Enquiry: What value of pEC50 has been recorded for this entry: Cn1c(Cl)c(C(=O)C(=O)NC2(C(F)(F)F)CCC2)c(F)c1C(=O)Nc1ccc(F)c(C#N)c1 [Compound 90]
Return: 7.49

Enquiry: What value of pEC50 has been recorded for this entry: Cn1cc(C(=O)C(=O)NC2(C)COC2)cc1C(=O)Nc1ccc(F)c(C#N)c1 [Compound 16]
Return: 7.40

Enquiry: What value of pEC50 has been recorded for this entry: Cc1c(C(=O)C(=O)NC(C)(C)CO)cc(C(=O)Nc2ccc(F)c(C#N)c2)n1C [Compound 94]
Return: 8.40

Enquiry: What value of pEC50 has been recorded for this entry: Cc1c(C(=O)C(=O)NC(C)C(C)(C)O)cc(C(=O)Nc2ccc(F)c(C#N)c2)n1C (stereo not shown) [Compound 72]
Return: 7.74

Enquiry: What value of pEC50 has been recorded for this entry: Cc1c(C(=O)C(=O)N[C@H]2CCCC[C@@H]2O)cc(C(=O)Nc2ccc(F)c(C#N)c2)n1C [Compound 67]
Return: 7.03

Enquiry: What value of pEC50 has been recorded for this entry: CC[C@@H](NC(=O)C(=O)c1c(Cl)c(C(=O)Nc2ccc(F)c(C#N)c2)n(C)c1C)C(F)(F)F [Compound 42]
Return: 8.70

Enquiry: What value of pEC50 has been recorded for this entry: Cn1cc(C(=O)C(=O)NC(C)(C)C)cc1C(=O)Nc1ccc(F)c(F)c1 [Compound 10]
Return: 7.38

Enquiry: What value of pEC50 has been recorded for this entry: C[C@@H](NC(=O)C(=O)c1cn(C)c(C(=O)Nc2ccc(F)c(C#N)c2)c1Br)C(F)(F)F [Compound 26]
Return: 7.15

Enquiry: What value of pEC50 has been recorded for this entry: C[C@H](CO)NC(=O)C(=O)c1cn(C)c(C(=O)Nc2ccc(F)c(C#N)c2)c1F [Compound 95]
Return: 7.19

Enquiry: What value of pEC50 has been recorded for this entry: Cc1c(C(=O)C(=O)NC2(C)CCCOC2)cc(C(=O)Nc2ccc(F)c(C#N)c2)n1C (stereo not shown) [Compound 78]
Return: 8.10

Enquiry: What value of pEC50 has been recorded for this entry: Cc1c(C(=O)C(=O)NC2(C)CC(F)(F)C2)c(F)c(C(=O)Nc2ccc(F)c(C#N)c2)n1C [Compound 37]
Return: 8.70
